Biological target: Recombinant soluble human NEP (Homo sapiens, UniProt P08473)
Construct: Recombinant soluble human NEP; purchased BioTechne, Wiesbaden, Germany
Sequence (P08473 52-750 limits assumed): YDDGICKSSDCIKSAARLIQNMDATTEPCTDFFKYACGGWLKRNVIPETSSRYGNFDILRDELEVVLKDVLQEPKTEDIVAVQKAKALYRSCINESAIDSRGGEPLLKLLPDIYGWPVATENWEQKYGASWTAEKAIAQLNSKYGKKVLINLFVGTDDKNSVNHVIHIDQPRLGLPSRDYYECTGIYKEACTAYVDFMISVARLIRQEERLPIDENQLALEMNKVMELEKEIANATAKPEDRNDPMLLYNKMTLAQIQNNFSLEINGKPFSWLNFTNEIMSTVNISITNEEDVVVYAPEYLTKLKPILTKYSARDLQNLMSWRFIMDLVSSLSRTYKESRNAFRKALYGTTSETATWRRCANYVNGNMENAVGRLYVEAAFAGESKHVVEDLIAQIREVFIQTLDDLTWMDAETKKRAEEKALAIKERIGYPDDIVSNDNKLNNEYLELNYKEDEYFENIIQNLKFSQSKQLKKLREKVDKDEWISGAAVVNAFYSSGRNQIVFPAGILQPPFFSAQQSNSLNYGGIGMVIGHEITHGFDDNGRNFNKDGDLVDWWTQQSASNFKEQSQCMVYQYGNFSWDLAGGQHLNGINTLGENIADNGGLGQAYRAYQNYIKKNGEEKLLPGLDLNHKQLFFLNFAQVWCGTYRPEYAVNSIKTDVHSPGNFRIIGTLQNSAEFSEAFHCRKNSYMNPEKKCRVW
Assay: Proteolytic stability assay against NEP
Format: in vitro ADME
Details: recombinant soluble human NEP, human NEP 100 ng/mL, compound 10 µM, 37°C, LC-MS quantification, read-out: % intact compound remaining after 24h incubation
Where a SMILES comes first, the peptide text is derived from it. Bridges are numbered along the chain shown (N, C = ends). [ ]: non-standard residue; d: D form. The star is where a group is joined. DOTA = O=C(O)CN1CCN(CC(=O)O)CCN(CC(=O)*)CCN(CC(=O)O)CC1; Hyp = O=C(O)[C@@H]1C[C@@H](O)CN1; Pentanoyl(4-Me) = CC(C)CCC(=O)*; Cit = NC(=O)NCCC[C@H](N)C(=O)O; Nva = CCC[C@H](N)C(=O)O; Pentanoyl = CCCCC(=O)*
property.measured: remaining at 24 h, 10 µM (%)
Report the figure in % without appending any unit label.

# compound, units, remaining at 24 h, 10 µM
data = [
    ("CC[C@H](C)[C@@H]1NC(=O)[C@@H]2C[C@@H](O)CN2C(=O)[C@@H]2CCCN2C(=O)[C@H](Cc2ccccc2)NC(=O)[C@H](Cc2ccc(O)cc2)NC(=O)[C@H](CCC(N)=O)NC(=O)[C@H](CCCNC(N)=O)NC(=O)[C@@H](NC(=O)CCC(C)C)CSSC[C@@H](C(N)=O)NC(=O)[C@H](CC(C)C)NC1=O [UPAR-174] ({Pentanoyl(4-Me)}-C[Cit]QYFP[Hyp]ILC-NH2; disulfide 1-10)", "%", 90),
]

Next item in the queue.
Task: Item under review: CCCCC(=O)N[C@H]1CSSC[C@@H](C(N)=O)NC(=O)[C@H](CCC)NC(=O)[C@H]([C@@H](C)CC)NC(=O)[C@@H]2C[C@@H](O)CN2C(=O)[C@@H]2CCCN2C(=O)[C@H](Cc2ccccc2)NC(=O)[C@H](Cc2ccc(O)cc2)NC(=O)[C@H](CCCCNC(=O)CN2CCN(CC(=O)O)CCN(CC(=O)O)CCN(CC(=O)O)CC2)NC(=O)[C@H](CCCNC(N)=O)NC1=O [UPAR-261] (Pentanoyl-C[Cit]K(DOTA)YFP[Hyp]I[Nva]C-NH2; disulfide 1-10) . Reported remaining at 24 h, 10 µM?
Output: 86

###

Biological target: human uPAR (uPAR-Fc) (Homo sapiens)
Construct: comprising amino acids Leu23-Arg303 according to UniProt entry Q03405.1; purchased R&D Systems 10378-UK-100
Sequence (Q03405 23-303): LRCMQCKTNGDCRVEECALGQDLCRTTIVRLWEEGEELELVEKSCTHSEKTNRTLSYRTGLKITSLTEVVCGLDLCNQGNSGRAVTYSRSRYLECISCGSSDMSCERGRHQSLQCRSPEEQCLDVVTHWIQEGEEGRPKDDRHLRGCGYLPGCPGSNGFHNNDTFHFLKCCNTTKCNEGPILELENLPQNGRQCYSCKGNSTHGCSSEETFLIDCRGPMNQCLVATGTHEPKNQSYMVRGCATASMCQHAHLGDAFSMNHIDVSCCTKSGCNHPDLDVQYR
Assay: Surface plasmon resonance (SPR) assay, single cycle kinetics
Assay type: binding
Conditions: pKD category for uPAR SPR activity assay; uPAR-Fc on Protein A-Chip, single cycle kinetics, 25°C; read-out: pKD CAT (converted)
Where a SMILES comes first, the peptide text is derived from it. Bridges are numbered along the chain shown (N, C = ends). [ ]: non-standard residue; d: D form. The star is where a group is joined. DOTA = O=C(O)CN1CCN(CC(=O)O)CCN(CC(=O)*)CCN(CC(=O)O)CC1; Phe(4-CN) = N#Cc1ccc(C[C@H](N)C(=O)O)cc1; Pro(cis-4-F) = O=C(O)[C@@H]1C[C@H](F)CN1; Hyp = O=C(O)[C@@H]1C[C@@H](O)CN1; Pentanoyl(4-Me) = CC(C)CCC(=O)*; Cit = NC(=O)NCCC[C@H](N)C(=O)O; Butoxycarbonyl = CCCCOC(=O)*; Nle = CCCC[C@H](N)C(=O)O; Nva = CCC[C@H](N)C(=O)O
property.measured: Kd

Please review the entries below; each comes with its answer.
# compound, Kd
measured = [
    ("CCCCOC(=O)N[C@H]1CSSC[C@@H](C(N)=O)NC(=O)[C@H](CCC)NC(=O)[C@H]([C@@H](C)CC)NC(=O)[C@@H]2C[C@@H](O)CN2C(=O)[C@@H]2C[C@H](F)CN2C(=O)[C@H](Cc2ccc(C#N)cc2)NC(=O)[C@H](Cc2ccc(O)cc2)NC(=O)[C@H](CCCCNC(=O)CN2CCN(CC(=O)O)CCN(CC(=O)O)CCN(CC(=O)O)CC2)NC(=O)[C@H]([C@@H](C)O)NC1=O [UPAR-378] (Butoxycarbonyl-CTK(DOTA)Y[Phe(4-CN)][Pro(cis-4-F)][Hyp]I[Nva]C-NH2; disulfide 1-10)", "< 1.58 nM"),
    ("CC[C@H](C)[C@@H]1NC(=O)[C@@H]2C[C@@H](O)CN2C(=O)[C@@H]2CCCN2C(=O)[C@H](Cc2ccccc2)NC(=O)[C@H](Cc2ccc(O)cc2)NC(=O)[C@H](CC(=O)O)NC(=O)[C@H](CCCNC(N)=O)NC(=O)[C@@H](NC(=O)CCC(C)C)CSSC[C@@H](C(N)=O)NC(=O)[C@H](CC(C)C)NC1=O [UPAR-410] ({Pentanoyl(4-Me)}-C[Cit]DYFP[Hyp]ILC-NH2; disulfide 1-10)", "< 1.58 nM"),
    ("CC[C@H](C)[C@@H]1NC(=O)[C@@H](C)NC(=O)[C@@H]2CCCN2C(=O)[C@H](Cc2ccccc2)NC(=O)[C@H](Cc2ccc(O)cc2)NC(=O)[C@H](CCCCNC(=O)CN2CCN(CC(=O)O)CCN(CC(=O)O)CCN(CC(=O)O)CC2)NC(=O)[C@@H](CC(=O)O)NC(=O)[C@@H](NC(=O)[C@H](CC(C)C)NC(=O)[C@H](CC(=O)O)NC(C)=O)CSSC[C@@H](C(N)=O)NC(=O)[C@H](CC(C)C)NC1=O [UPAR-392] (Ac-DLC[dD]K(DOTA)YFP[dA]ILC-NH2; disulfide 3-12)", "> 100 nM"),
    ("CC[C@H](C)[C@@H]1NC(=O)[C@@H](C)NC(=O)[C@@H]2CCCN2C(=O)[C@H](Cc2ccccc2)NC(=O)[C@H](Cc2ccc(O)cc2)NC(=O)[C@H](CCC(N)=O)NC(=O)[C@H](CCCNC(N)=O)NC(=O)[C@@H](NC(=O)CCC(C)C)CSSC[C@@H](C(N)=O)NC(=O)[C@H](C)NC1=O [UPAR-402] ({Pentanoyl(4-Me)}-C[Cit]QYFP[dA]IAC-NH2; disulfide 1-10)", "1.58 to 10 nM"),
]

Next item in the queue.
Task: Item under review: CCCC[C@@H]1NC(=O)[C@H](CCCNC(=N)N)NC(=O)[C@H](NC(=O)[C@H](CC(C)C)NC(=O)[C@H](CC(=O)O)NC(C)=O)CSSC[C@@H](C(N)=O)NC(=O)[C@H](CC(C)C)NC(=O)[C@H]([C@@H](C)CC)NC(=O)[C@H](C)NC(=O)[C@@H]2CCCN2C(=O)[C@H](Cc2ccccc2)NC(=O)[C@H](Cc2ccc(O)cc2)NC1=O [UPAR-412] (Ac-DL[dC]R[Nle]YFPAILC-NH2; disulfide 3-12) . Reported Kd?
Output: > 100 nM
